Listed here are binders together with their documented Fold diff..
system-name: T1, recombinant human KAAG1 (Kidney associated antigen 1) (human, UniProt Q9UBP8 1-84)
T1 construct: also called KAAG1 protein
T1 sequence: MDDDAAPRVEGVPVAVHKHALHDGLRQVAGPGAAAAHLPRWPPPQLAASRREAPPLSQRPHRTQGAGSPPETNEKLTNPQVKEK
test-summary: SPR (BioRad ProteOn XPR36); fold difference of KD relative to LcHc
Give the value as a plain number.

Task item: What Fold diff. value was documented for this binder, humanized 3A4 antibody Lh1Hh3 (antibody, human IgG1, kappa, V domains shown, Human IgG1/kappa) VH: QIQLVQSGAEVKKPGASVKVSCKASGYTFTDDYMSWVRQAPGQGLEWIGDINPYNGDTNYNQKFKGRATLTVDKSTSTAYMELSSLRSEDTAVYYCARDPGAMDYWGQGTLVTVSS VL: DIVMTQTPLSLPVTPGEPASISCRSSQSLLHSNGNTYLEWYLQKPGQSPQLLIYTVSNRFSGVPDRFSGSGSGTDFTLKISRVEAEDVGVYYCFQGSHVPLTFGQGTKLEIKR ?
Reply: 9.3

Task item: What Fold diff. value was documented for this binder, humanized 3A4 antibody Lh2Hh4 (antibody, human IgG1, kappa, V domains shown, Human IgG1/kappa; 10 mouse framework residues retained; also called H4L2) VH: QIQLVQSGAEVKKPGASVKVSCKASGYTFTDDYMSWVKQAPGQGLEWIGDINPYNGDTNYNQKFKGKATLTVDKSTSTAYMELSSLRSEDTAVYYCARDPGAMDYWGQGTLVTVSS VL: DVVMTQTPLSLPVTPGEPASISCRSSQSLLHSNGNTYLEWYLQKPGQSPKLLIYTVSNRFSGVPDRFSGSGSGTDFTLKISRVEAEDVGVYYCFQGSHVPLTFGQGTKLEIKR ?
Reply: 6.4

Task item: What Fold diff. value was documented for this binder, humanized 3A4 antibody Lh2Hh3 (antibody, human IgG1, kappa, V domains shown, Human IgG1/kappa) VH: QIQLVQSGAEVKKPGASVKVSCKASGYTFTDDYMSWVRQAPGQGLEWIGDINPYNGDTNYNQKFKGRATLTVDKSTSTAYMELSSLRSEDTAVYYCARDPGAMDYWGQGTLVTVSS VL: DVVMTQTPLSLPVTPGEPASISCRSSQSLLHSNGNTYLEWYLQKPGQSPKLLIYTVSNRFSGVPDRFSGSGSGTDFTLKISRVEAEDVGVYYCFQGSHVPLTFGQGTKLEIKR ?
Reply: 14.3
